What pIC50 was measured for each of the following?
target: UniProtKB P07607; assay: TS activity in intact L1210/0 cells (tritium release); type: cell-based, murine; conditions: intact L1210/0 cells, 30 min exposure; read-out: IC50 Tritium release from dCyd*
Sequence (P07607 whole entry): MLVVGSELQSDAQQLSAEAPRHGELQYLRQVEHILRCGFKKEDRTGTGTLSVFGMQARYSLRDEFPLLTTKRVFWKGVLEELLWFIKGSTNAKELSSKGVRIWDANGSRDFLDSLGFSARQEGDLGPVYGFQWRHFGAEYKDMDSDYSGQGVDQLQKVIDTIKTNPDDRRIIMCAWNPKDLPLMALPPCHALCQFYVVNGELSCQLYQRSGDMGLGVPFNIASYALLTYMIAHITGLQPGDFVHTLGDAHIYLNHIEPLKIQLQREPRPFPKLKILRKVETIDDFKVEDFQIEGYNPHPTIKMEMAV
Numbers only, as −log10 of the molar value.

compound	assayed.system	assay.endpoint	data.value
C[C@H](NP(=O)(OC[C@H]1O[C@@H](n2cc(F)c(=O)[nH]c2=O)CC1O)Oc1cccc2ccccc12)C(=O)OCc1ccccc1 (some centres unmarked)	UniProtKB P07607	pIC50	6.72

Then there is this compound:
Data request: Identify measured pIC50 corresponding to O=c1[nH]c(=O)n([C@H]2C[C@H](O)[C@@H](CO)O2)cc1F [5-FdUrd, 5-fluoro-2′-deoxyuridine, reference compound]
Data returned: 9.15
